target: GST-CIB1 : F-αIIb peptide (Homo sapiens, UniProt Q99828); construct: made in house; host or cells: BL-21 plus RIL cells (E. coli); assay: FP assay in the presence of glutathione (GSH), thiol reactivity; format: binding; conditions: FP assay in the presence of glutathione (GSH +); read-out: GSH (+) Assay IC50
So I've got a bunch of compounds here, and I need their pIC50 values.
Scale: pIC50 equals -log10([C]), with [C] in mol/L.

GET /values?readout=pIC50&item= COc1ccccc1C(=O)c1no[n+]([O-])c1C(=O)c1ccccc1OC.O=C(O)C(F)(F)F
5.92

Also O=C1C(I)=CC(=C(c2cc(I)c([O-])c(I)c2)c2ccccc2C(=O)[O-])C=C1I.[Na+].[Na+] ?
4.55

Also O=C(c1cccs1)c1no[n+]([O-])c1C(=O)c1cccs1 ?
5.51

Also COc1ccc(CNC(=O)c2nc(S(=O)(=O)Cc3ccccc3)ncc2Cl)cc1.O=C(O)C(F)(F)F ?
5.39

Also CN(C)C(=S)SSC(=S)N(C)C [NCGC00091563-02, thiram, reference compound] ?
5.08

Also CCN(CC)C(=S)SSC(=S)N(CC)CC [NCGC00016000-13, disulfiram, reference compound] ?
4.57

Also Oc1ccc2ccccc2c1SSc1c(O)ccc2ccccc12 [NCGC00186047-02, IPA-3, reference compound] ?
6.49

* * *

Target: CIB1 and αIIb interaction (CIB1-GST : F-αIIb peptide) (Homo sapiens, UniProt Q99828)
Construct: made in house; host or cells: BL-21 plus RIL cells (E. coli)
Sequence (Q99828 1-191): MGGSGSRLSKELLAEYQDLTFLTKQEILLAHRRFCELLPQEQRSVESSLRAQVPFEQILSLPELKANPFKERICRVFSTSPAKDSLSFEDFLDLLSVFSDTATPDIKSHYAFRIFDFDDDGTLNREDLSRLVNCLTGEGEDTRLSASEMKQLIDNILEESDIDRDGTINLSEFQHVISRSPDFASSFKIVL
Assay: FP assay, 1536-well qHTS format (primary and confirmatory screen)
Format: binding
Conditions: qHTS primary screen of LOPAC/NPACT libraries; negative = inhibition
reported_metric: Efficacy (%)
Your answer is read as %, so omit the unit and give the number.

GET /values?readout=Efficacy (%)&item= CCN1CCc2nc(N)oc2CC1.Cl
-13

Also C/C=C/C=C/c1cc2c(C=O)c(O)c(CC=C(C)C)cc2o1 ?
-28

Also N=C(N)c1ccc2c(c1)N/C(=C1/C=C(CC(=O)NC(CC(=O)O)C(=O)O)C=C(c3cc(S(N)(=O)=O)ccc3O)C1=O)N2 (centres unmarked) ?
-31

Also Cn1c(=O)c2[nH]c(-c3ccc(S(=O)(=O)O)cc3)nc2n(C)c1=O ?
-28

Also C=CC(=O)Nc1cccc(Sc2nc(Nc3ccc(N4CCN(C)CC4)cc3)ncc2Cl)c1 ?
-29

Also C=C1C(=O)O[C@H]2[C@H]1[C@@H](OC(=O)C(C)CO)C[C@@]1(C)[C@H](O)CCC(=O)[C@H]21 (some centres unmarked) ?
-20

Also COc1ccc(Cl)cc1C(=O)NCCc1ccc(S(=O)(=O)NC(=O)NC2CCCCC2)cc1 ?
-14

Also Cc1cc(-c2cc(O)ccc2Cl)cc2nnc(Nc3ccc(OCCN4CCCC4)cc3)nc12.Cl ?
-25

* * *

Target: GST-CIB1 : F-scrambled peptide (Homo sapiens, UniProt Q99828)
Construct: made in house; host or cells: BL-21 plus RIL cells (E. coli)
Sequence (Q99828 1-191): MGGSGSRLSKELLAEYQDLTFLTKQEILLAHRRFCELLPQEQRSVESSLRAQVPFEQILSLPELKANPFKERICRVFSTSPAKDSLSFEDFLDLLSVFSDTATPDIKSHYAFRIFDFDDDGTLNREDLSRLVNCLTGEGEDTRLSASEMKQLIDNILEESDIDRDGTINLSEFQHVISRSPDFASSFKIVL
Assay: FP scrambled-peptide counter screen, 1536-well format
Format: binding
Settings: counterscreen
So I've got a bunch of compounds here, and I need their Efficacy (%) (counterscreen) values.
Your answer is read as %, so omit the unit and give the number.

Provide value of Efficacy (%) (counterscreen) for this record tested with GST-CIB1 : F-scrambled peptide (Homo sapiens, UniProt Q99828): Cc1ccccc1C(=O)N1CCc2cc(-c3nc(NC(=O)Cc4ccc(OCCOCCOCCN)cc4)sc3C)ccc21.O=C(O)C(F)(F)F
-31

Also Oc1ccc(Cl)cc1Cc1cc(Cl)ccc1O ?
-38

Also O=C(O)c1ccc(-n2cccc2/C=C2\SC(=O)N(Cc3cccc(Cl)c3)C2=O)cc1 ?
-61

Also N#Cc1ccc(NS(=O)(=O)c2ccc(Nc3nc(-c4ccccc4)cs3)cc2)cc1.O=C(O)C(F)(F)F ?
-84

Also Cc1ccc(CNc2ncnc3ccc(-c4ccc([C@@H](C)O)o4)cc23)o1 ?
-36

Also CC1=C(C(=O)Nc2cccc(C(=O)O)c2)C(c2ccccc2Cl)N=C(Nc2nc3ccccc3o2)N1.O=C(O)C(F)(F)F (stereo not drawn) ?
141

Also COc1cc(Nc2c(C#N)cnc3cc(OCCCN4CCN(C)CC4)c(OC)cc23)c(Cl)cc1Cl ?
-37

Also Oc1ccc2c(-c3c(-c4ccccn4)nn4c3CCC4)ccnc2c1 ?
-32

Also COc1ccc2c(c[n+](C)c3c4cc5c(cc4ccc23)OCO5)c1OC.[Cl-] ?
-55

Also O=C(O)c1cnn(-c2nc3cc(Cl)c(OC(F)(F)F)cc3[nH]2)c1 ?
-15

Also CN1CCN([C@H]2CC[C@H](n3cc(-c4ccc(Oc5ccccc5)cc4)c4c(N)ncnc43)CC2)CC1.Cl ?
-17

Also C=C1C(=O)O[C@@H]2[C@H]3C(C)=CC(=O)C3=C(C)[C@@H](OC(=O)/C(C)=C\C)[C@H](O)[C@@H]12 ?
-39

Also Cn1ccc(=Nc2ccc(NC(=O)c3ccc(/N=c4\ccn(C)c5ccc([N+](=O)[O-])cc45)cc3[N+](=O)[O-])cc2)cc1.O=C(O)C(F)(F)F ?
-46

Also O=C(O)C(F)(F)F.c1ccc(-n2ccc(-c3nnc4n3CCCCC4)c2)cc1 ?
-62

Also CN1CCN(c2cccc(Nc3nn4c(=O)c5ccc(Br)cc5nc4s3)c2)CC1.Cl ?
-54

Also C=CCNc1oc(-c2ccc(Cl)cc2)nc1C#N.O=C(O)C(F)(F)F ?
-30

Also Cc1ccc2nc3sc(C(=O)NCc4ccco4)cc3cc2c1.O=C(O)C(F)(F)F ?
-27

Also CC[C@@H](CO)NC(=O)[C@@H]1C=C2c3cccc4c3c(cn4C)C[C@H]2N(C)C1.O=C(O)/C=C\C(=O)O ?
-73

Also O=C(O)C(F)(F)F.O=S(=O)(Nc1nc2ccccc2s1)c1ccc(NCc2ccc(Br)cc2O)cc1 ?
-15

Also CCOC(=O)CC(SP(=S)(OC)OC)C(=O)OCC (stereo not drawn) ?
-27

Also CCC(=O)NC(c1cccs1)c1cc(Br)c2cccnc2c1O (stereo not drawn) ?
-21

Also Cc1cccc(C(=O)c2no[n+]([O-])c2C(=O)c2cccc(C)c2)c1.O=C(O)C(F)(F)F ?
-65

Also COC[C@H]1OC(=O)c2coc3c2[C@@]1(C)C1=C(C3=O)[C@@H]2CCC(=O)[C@@]2(C)C[C@H]1OC(C)=O ?
-20

Also CCN1C(=O)c2ccccc2[S+]([O-])c2ccc(C(=O)NCc3cccc(F)c3)cc21 (stereo not drawn) ?
-26

Also COc1cc(C=C2C(=O)Nc3ccccc32)cc(OC)c1O ?
-44

Also Cl.O=[N+]([O-])c1cccc(CNc2ccc(S(=O)(=O)Nc3nccs3)cc2)c1O ?
-43

Also O=C1C[C@@](c2ccc(N3CCOCC3)cc2)(c2ccsc2)NC(=O)C1Sc1ccccc1Cl (stereo partly drawn) ?
-34

Also CC1=NN(c2ccc(C)c(C)c2)C(=O)/C1=N/Nc1cccc(-c2cccc(C(=O)O)c2)c1O ?
-37

Also O=C(O)C(F)(F)F.O=S(=O)(Nc1nccs1)c1ccc(NCc2cc(F)cc(Cl)c2O)cc1 ?
170

Also Cc1ccc(C(=O)c2no[n+]([O-])c2C(=O)c2ccc(C)cc2)cc1.O=C(O)C(F)(F)F ?
-36

* * *

Target: CIB1 and αIIb interaction (CIB1-GST : F-αIIb peptide) (Homo sapiens, UniProt Q99828)
Construct: made in house; host or cells: BL-21 plus RIL cells (E. coli)
Sequence (Q99828 1-191): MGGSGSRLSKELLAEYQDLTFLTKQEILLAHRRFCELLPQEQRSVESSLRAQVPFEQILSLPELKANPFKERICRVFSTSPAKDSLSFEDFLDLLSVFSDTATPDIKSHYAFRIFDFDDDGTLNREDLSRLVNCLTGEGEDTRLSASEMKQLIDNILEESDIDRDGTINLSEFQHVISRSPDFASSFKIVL
Assay: FP assay, 1536-well qHTS format (primary and confirmatory screen)
Assay type: binding
Settings: qHTS FP screen hits, Table S2; read-out: IC50
reported_metric: pIC50
Scale: pIC50 equals -log10([C]), with [C] in mol/L.

GET /values?readout=pIC50&item= CCCCCCCCOc1ccccc1C(=O)Nc1ccc(C(=O)OCC[N+](C)(CC)CC)cc1.[Br-] [NCGC00163507-03]
4.65

Also CNc1ccc(C(=O)Oc2cc(ON=[N+]([O-])N(C)C)c([N+](=O)[O-])cc2[N+](=O)[O-])cc1 [NCGC00168169-02] ?
4.65

Also CCc1oc2ccccc2c1C(=O)c1cc(Br)c(O)c(Br)c1 [NCGC00013895-18] ?
4.46

Also CN1C[C@H](CNC(=O)OCc2ccccc2)C[C@@H]2c3cccc4c3c(cn4C)C[C@H]21 [NCGC00017257-10] ?
4.44

Also O=C(c1ccccc1)c1c(O)cc(O)cc1O[C@@H]1O[C@H](CO)[C@@H](O)[C@H](O)[C@H]1O [NCGC00384934-01] ?
4.60

Also CC[C@@H](c1ccc(F)c(F)c1)n1c(C(=O)OC)c(-c2ccno2)[nH]c1=S [NCGC00387465-01] ?
4.10

Also O=C(O)C(F)(F)F.O=S(=O)(Nc1nc2n(n1)C(c1ccccc1)C=C(c1ccc(Cl)cc1)N2)c1ccccc1 (centres unmarked) [NCGC00100537-04] ?
4.65

Also COP(=S)(OC)SCN1C(=O)c2ccccc2C1=O [NCGC00080392-05] ?
4.75
